Biological target: T1, human DLL3 (ACRO, DLL3-H52H4) (human, UniProt Q9NYJ7 27-492)
T1 construct: Bought
T1 sequence: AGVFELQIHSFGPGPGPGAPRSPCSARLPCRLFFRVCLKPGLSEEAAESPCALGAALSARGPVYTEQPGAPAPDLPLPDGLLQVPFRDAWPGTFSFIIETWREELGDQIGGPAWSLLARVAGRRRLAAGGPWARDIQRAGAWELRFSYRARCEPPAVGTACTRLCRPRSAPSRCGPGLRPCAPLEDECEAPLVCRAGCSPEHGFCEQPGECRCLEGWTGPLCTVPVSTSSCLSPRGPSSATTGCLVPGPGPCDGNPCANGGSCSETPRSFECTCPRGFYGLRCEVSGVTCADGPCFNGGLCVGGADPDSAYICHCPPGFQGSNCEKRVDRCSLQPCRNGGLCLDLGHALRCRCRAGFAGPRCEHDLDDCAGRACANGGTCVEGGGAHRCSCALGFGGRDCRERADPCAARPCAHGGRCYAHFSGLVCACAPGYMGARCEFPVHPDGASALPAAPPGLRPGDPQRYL
Assay: SPR Biacore 8K, Ab captured on Protein A
measured_metric: kon (M⁻¹ s⁻¹)

hu110L2H5 (antibody, human IgG1, kappa, V domains shown) VH: EVQLVQSGAEVKKPGASVKVSCKTSGYTFTDYYMNWVRQAPGQSLEWMGIINPYTGGTSYTQKFKGRVTITVDKSASTAYMELSSLRSEDTAVYYCARHFYDSSYLTYSTMDYWGQGTTVTVSS VL: NIVMTQSPKSLAVSLGERATINCKASENVGIFVSWYQQKPGQSPKLLIYGASNRYTGVPDRFSGSGSATDFTLTISSLQAEDVADYYCGQSHSYPLTFGQGTKLEIKR : 434000
hu98L2H1 (antibody, human IgG1, kappa, V domains shown) VH: EVQLVESGGGLVQPGGSLRLSCAASGFTFSDYGIHWVRQAPGKGLEWVAYISSGGYTIYYADTVKGRFTISRDNAKNSLYLQMNSLRAEDTAVYYCARGDYDDIFYTMDYWGQGTTVTVSS VL: DIQMTQSPSSLSASVGDRVTITCRASRDITKFLNWYQQKPGKAVKLLIYYTSRLHSGVPSRFSGSGSGTDYTLTISSLQPEDFATYYCQQGNTLPWTFGGGTKVEIKR : 1.45e+06
hu6L2H2 (antibody, human IgG1, kappa, V domains shown) VH: EVQLVQSGAEVKKPGASVKVSCKASGYTFTDYYMNWVRQAPGQRLEWMGIINPYSGVTIYNHKFKGRVTLTVDKSANTAYMELSSLRSEDTAVYYCARQDSLLDYAMDYWGQGTTVTVSS VL: DIQMTQSPSSLSASVGDRVTITCHASQGISGNMGWLQQKPGKAPKGLIYHGANLEDGVPSRFSGSGSGADYTLTISSLQPEDFATYYCVQYAQFPYTFGGGTKVEIKR : 704000
